Experiment: Dose normalized AUC in mouse at 25 mg/kg, iv by HPLC-MS/MS analysis
Format: ADME, organism-based
Conditions: in vivo
For each record, write down the corresponding AUC/dose.

## Task Give a short answer stating reported AUC/dose for COCCOc1cc(N2C[C@@H](C)n3c(c(CCCOc4cc(C)c(Cl)c(C)c4)c4ccc(Cl)c(-c5c(C)ncnc5C)c43)C2=O)c2c(cc(C(=O)O)n2C)c1OC .
## Result 380 nM·h/mg/kg

## Task Supply recorded AUC/dose for COc1c(OCC2CCOCC2)cc(N2C[C@@H](C)n3c(c(CCCOc4cc(C)c(Cl)c(C)c4)c4ccc(Cl)c(-c5c(C)nc(C)nc5C)c43)C2=O)c2c1cc(C(=O)O)n2C here.
## Result 9000 nM·h/mg/kg

## Task Give the measured AUC/dose for COCCOc1cc(N2C[C@@H](C)n3c(c(CCCOc4cc(C)c(Cl)c(C)c4)c4ccc(Cl)c(-c5c(C)nc(C)nc5C)c43)C2=O)c2c(cc(C(=O)O)n2C)c1OC
## Result 334 nM·h/mg/kg

## Task Could you please provide reported AUC/dose for COc1c(OC[C@H]2CCCO2)cc(N2C[C@@H](C)n3c(c(CCCOc4cc(C)c(Cl)c(C)c4)c4ccc(Cl)c(-c5c(C)ncnc5C)c43)C2=O)c2c1cc(C(=O)O)n2C ? Thanks!
## Result 1480 nM·h/mg/kg
